System Tested: BCAT2 (Homo sapiens, UniProt O15382)
Sequence (O15382 28-392): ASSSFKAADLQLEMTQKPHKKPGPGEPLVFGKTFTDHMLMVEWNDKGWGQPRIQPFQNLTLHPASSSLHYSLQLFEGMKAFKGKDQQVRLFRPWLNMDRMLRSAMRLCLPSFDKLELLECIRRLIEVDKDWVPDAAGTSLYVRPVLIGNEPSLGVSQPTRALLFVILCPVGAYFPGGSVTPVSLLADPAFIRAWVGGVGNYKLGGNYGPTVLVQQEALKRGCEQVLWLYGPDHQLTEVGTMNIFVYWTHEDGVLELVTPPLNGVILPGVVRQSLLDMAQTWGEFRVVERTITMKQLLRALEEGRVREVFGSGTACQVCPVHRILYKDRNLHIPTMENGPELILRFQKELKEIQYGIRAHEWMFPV
Experimental Protocol: BCAT2 in vitro enzyme inhibition assay (resazurin/diaphorase-coupled fluorescence)
Format: biochemical
Experimental Context: average where tested multiple times
pIC50: −log10 of the molar value.
Measured Quantity: pIC50

>>> df
                                   compound  experimental_result
0  CC(C)C(F)(F)c1nc2cnc(-c3ccccn3)cc2n1[C@@H]1CCC[C@H](NC(=O)c2ncc(Cl)s2)C1 [Example 318]         6.00 to 6.30
1  O=C(N[C@H]1CCC[C@@H](n2c(-c3ccccn3)nc3cnc(-n4cccn4)cc32)C1)c1ccc(Br)s1 [Example 30]               ≥ 7.00
2  CC(C)Cc1nc2cnc(N3CCC[C@@H]3C(C)(C)O)cc2n1[C@@H]1CCC[C@H](NC(=O)c2ncc(Cl)s2)C1 [Example 304]               < 6.00
3  CC(C)Cc1nc2cnc(-c3ccccn3)cc2n1[C@@H]1CCC[C@H](NC(=O)c2ncc(Cl)s2)[C@H]1O [Example 235]               ≥ 7.00
4  O=C(NC1CCCC(n2c(-c3ncccc3F)nc3cnc(-c4nnco4)cc32)C1)c1ccc(Br)s1 (stereo not shown) [Example 2]               ≥ 7.00
5  O=C(N[C@H]1CCC[C@@H](n2c(-c3ccccc3F)nc3cnc(-n4nccn4)cc32)C1)c1ccc(Cl)s1 [Example 72]               ≥ 7.00
6  C#Cc1cnc(C(=O)N[C@H]2CCC[C@@H](n3c(-c4ncccc4F)nc4cnc(-n5cncn5)cc43)C2)s1 [Example 29]               ≥ 7.00

====

System Tested: BCAT2 (Homo sapiens, UniProt O15382)
Experimental Protocol: BCAT2 in vitro enzyme inhibition assay (resazurin/diaphorase-coupled fluorescence)
Format: biochemical
Experimental Context: average where tested multiple times
pIC50: −log10 of the molar value.
Measured Quantity: pIC50

In [3]: df
Out[3]:
                                   compound                         system_tested  experimental_result
0  CC(C)Cc1nc2cnc(-c3nc[nH]n3)cc2n1[C@@H]1CCC[C@H](NC(=O)c2ncc(Cl)s2)C1  BCAT2 (Homo sapiens, UniProt O15382)               ≥ 7.00
1  CC(=O)N1CC(NC(=O)c2ncc(C(F)F)s2)CC(n2c(-c3ccccn3)nc3cnc(-n4ccnn4)cc32)C1 (stereo not shown)  BCAT2 (Homo sapiens, UniProt O15382)         6.30 to 7.00
2  O=C(N[C@H]1CCC[C@@H](n2c(-c3ccccc3F)nc3cnc(-c4ccc(F)cn4)cc32)C1)c1ncc(Cl)s1  BCAT2 (Homo sapiens, UniProt O15382)               ≥ 7.00
3  CC(C)Cc1nc2cnc(-n3nccn3)cc2n1[C@H]1CCC[C@@H](NC(=O)c2ccc(Cl)s2)[C@@H]1O  BCAT2 (Homo sapiens, UniProt O15382)               < 6.00
4  CC(C)Cc1nc2cnc(-c3cccc(F)n3)cc2n1[C@@H]1CCC[C@H](NC(=O)c2ncc(Cl)s2)[C@H]1O  BCAT2 (Homo sapiens, UniProt O15382)               ≥ 7.00
5  CC(C)Cc1nc2cnc(-n3nccn3)cc2n1[C@@H]1C[C@@H](O)C[C@H](NC(=O)c2ccc(Cl)s2)C1 (single isomer, unassigned)  BCAT2 (Homo sapiens, UniProt O15382)               ≥ 7.00
6  CC(C)[C@@H](N)c1nc2cnc(-c3ccccn3)cc2n1[C@@H]1CCC[C@H](NC(=O)c2ncc(Cl)s2)C1  BCAT2 (Homo sapiens, UniProt O15382)         6.30 to 7.00
